# system_tested: human glucagon receptor (human, UniProt P47871 26-477)
# Sequence (P47871 26-477): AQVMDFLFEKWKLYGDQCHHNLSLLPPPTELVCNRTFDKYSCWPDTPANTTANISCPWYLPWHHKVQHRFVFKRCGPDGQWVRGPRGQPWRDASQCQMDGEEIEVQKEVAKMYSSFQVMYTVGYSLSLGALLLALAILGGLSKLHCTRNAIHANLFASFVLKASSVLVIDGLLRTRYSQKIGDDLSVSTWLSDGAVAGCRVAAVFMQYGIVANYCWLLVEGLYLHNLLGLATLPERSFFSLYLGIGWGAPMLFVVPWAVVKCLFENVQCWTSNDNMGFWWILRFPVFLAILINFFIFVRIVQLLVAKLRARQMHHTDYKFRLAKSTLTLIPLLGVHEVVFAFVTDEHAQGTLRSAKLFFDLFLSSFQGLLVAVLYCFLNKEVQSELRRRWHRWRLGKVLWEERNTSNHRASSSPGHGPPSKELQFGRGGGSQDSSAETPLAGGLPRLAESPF
# method_description: cell-based or functional assay
Where no end group is shown, it is not given here. [ ]: non-standard residue; d: D form. Aib = CC(C)(N)C(=O)O
endpoint: hGcgR CRE Luc EC50 (pM)
Remember to follow the number with its unit.

Input line: Which hGcgR CRE Luc EC50 (pM) is reported for this binder? Y[Aib]QGTFTSDYSIYLDKQAA[Aib]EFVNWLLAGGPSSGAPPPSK-NH2 (not fully specified (residue 40)) [Compound No. 59]
Output line: 703 pM

Input line: Another binder to check: Y[Aib]QGTFTSDYSIYLDKQAA[Aib]EFVKWLLAGGPSSGAPPPS-NH2 (not fully specified (residue 24)) [Compound No. 64]
Output line: 464 pM

Input line: And what about the binder Y[Aib]QGTFTSDYSIYLDKQAA[Aib]EFVNWLLAKGPSSGAPPPS-NH2 (not fully specified (residue 29)) [Compound No. 65] ?
Output line: 1350 pM

Input line: Now the binder Y[Aib]QGTFTSDYSIYLDKKAA[Aib]EFVNWLLAGGPSSGAPPPS-NH2 (not fully specified (residue 17); printed as Y-Aib-QGTFTSDYSIYLDK-K[2-[2-[2-[[2-[2-[2-[[(4S)-4-carboxy-4-(17-carboxyheptadecanoylamino)butanoyl]amino]ethoxy]ethoxy]acetyl]amino]ethoxy]ethoxy]acetyl]-AA-Aib-EFVNWLLAGGPSSGAPPPS-NH2) [Compound No. 2]
Output line: 47.6 pM
